- assay-remarks: protein stability index of a GFP-peptide fusion (yeast GPS) (PSI 1-4); higher = more stable; sorted into four equal gates, so the index is relative within each strain
- cond: doa10∆
readout-label: protein stability index

{"columns": ["item-sequence", "protein stability index"],
 "data": [
  ["NGCSGADVKGVCTEAGM [RPT6]", 3.15],
  ["PVSPLDIYSDEASAQKK [RPS2]", 2.74],
  ["DVIAWKNVLANSIWGSS [ITC1]", 2.83],
  ["RTAKAYLKVSEEEIKKF [PRP8]", 2.98],
  ["EQQVKEAEMAYVKAVSD [SMC4]", 3.21],
  ["MTSENPDVLLSRVINVV [RRP6]", 1.39],
  ["NQSNLNGGNNTQQPGTN [SNF2]", 2.76],
  ["KITAKTQHEEEEEQDTG [IRR1]", 2.69],
  ["HELITNIGETAGVVQDI [RPB9]", 2.82],
  ["DSSTTSSNSQQSTPQPD [ITC1]", 3.04]
]}

Next sequence, please.
Qu. Give the measured protein stability index of QNVISLGSLTVEDYLSS [RPC82] .
Ans. 2.83

Cited source: the supplement of paper PMC9732359
